- test protocol: qHTS assay to identify small molecule agonists of the estrogen related receptor (ERR) signaling pathway from Tox21 library (AID 1224849); further: on the % scale 0 is the no-effect control and ±100 the full control effect; nearly all actives have a fitted effect of over 15% in size
- measurement parameters: ERR reporter cell line, ONE-Glo luciferase, 18 h; at 92.4 µM (top of the series) unless noted
Activity calls are given as the source filed them. The call rests on the fitted dose curve.
value kind: activity change, positive = activation

Can you share its activity change, positive = activation? I mean this molecule: CC(=O)SCC(CC(=O)c1ccc(C)cc1)C(=O)O (centres undefined) 8.89% [at 42.5 µM] (inactive)

Can you share its activity change, positive = activation? I mean this molecule: C[Si](C)(C)O[Si](O)(O)O 4.29% (inactive)

Can you share its activity change, positive = activation? I mean this molecule: CO/N=C(\C(=O)O)c1csc(NC(=O)CCl)n1 4.95% [at 42.5 µM] (inactive)

Can you share its activity change, positive = activation? I mean this molecule: Cc1ccc(OC(=O)CC(C)C)cc1 -0.118% (inactive)

Can you share its activity change, positive = activation? I mean this molecule: CCCCN1C(=O)c2ccccc2C1=O 6.09% (inactive)

Can you share its activity change, positive = activation? I mean this molecule: CC(C)(C)C(=O)CC(=O)C(C)(C)C 3.23% (inactive)

Can you share its activity change, positive = activation? I mean this molecule: CN(C)CCC[C@@]1(c2ccc(F)cc2)OCc2cc(C#N)ccc21 -3.55% [at 42.5 µM] (inactive)

Can you share its activity change, positive = activation? I mean this molecule: CC(C)(C)C(=O)CCc1ccc(Cl)cc1 2.37% (inactive)

Can you share its activity change, positive = activation? I mean this molecule: O=C1Nc2ccccc2C1=O -1.92% (inactive)

Can you share its activity change, positive = activation? I mean this molecule: Cc1ccc(O)c([N+](=O)[O-])c1 -16.2% (inactive)

Can you share its activity change, positive = activation? I mean this molecule: CCCCCCCCOCCC#N 3% (inactive)

Can you share its activity change, positive = activation? I mean this molecule: C=CCn1cc[n+](C)c1 5.14% (inactive)

Can you share its activity change, positive = activation? I mean this molecule: CCCCOCCCC 4.99% (inactive)

Can you share its activity change, positive = activation? I mean this molecule: CC/C=C\CCOC(=O)c1ccccc1 5.28% (inactive)

Can you share its activity change, positive = activation? I mean this molecule: CN(C)c1ccncc1 -2.4% (inactive)

Can you share its activity change, positive = activation? I mean this molecule: CC(=O)SC[C@@H](C)C(=O)N1CCC[C@H]1C(=O)N[C@@H](Cc1ccccc1)C(=O)O 7.31% [at 42.5 µM] (inactive)

Can you share its activity change, positive = activation? I mean this molecule: CC(=O)c1c(C)cc(C(C)(C)C)cc1C -1.7% (inactive)

Can you share its activity change, positive = activation? I mean this molecule: COc1cnc(NS(=O)(=O)c2ccc(N)cc2)nc1 4.16% [at 42.5 µM] (inactive)

Can you share its activity change, positive = activation? I mean this molecule: CC(C)(Sc1cc(C(C)(C)C)c(O)c(C(C)(C)C)c1)Sc1cc(C(C)(C)C)c(O)c(C(C)(C)C)c1 3.41% [at 42.5 µM] (inactive)

Can you share its activity change, positive = activation? I mean this molecule: N[C@H]1C(O)O[C@H](CO)[C@@H](O)[C@@H]1O (some centres undefined) 3.25% [at 42.5 µM] (inactive)

Can you share its activity change, positive = activation? I mean this molecule: CC(C)C[P+](C)(CC(C)C)CC(C)C -12.2% (inactive)

Can you share its activity change, positive = activation? I mean this molecule: Nc1cc(S(=O)(=O)O)ccc1O 6.11% (inactive)

Can you share its activity change, positive = activation? I mean this molecule: CC/C=C\CCCCCCCCCCOC(C)=O 0.807% (inactive)

Can you share its activity change, positive = activation? I mean this molecule: CCCC(C)C(O)CC (centres undefined) -0.957% (inactive)

Can you share its activity change, positive = activation? I mean this molecule: CCCCCCC(=O)c1ccccc1 3.5% (inactive)

Can you share its activity change, positive = activation? I mean this molecule: CC(C)c1cc(C(C)C)cc(C(C)C)c1 7.19% (inactive)

Can you share its activity change, positive = activation? I mean this molecule: CCCc1ncc(C(=O)O)s1 3.45% [at 42.5 µM] (inactive)

Can you share its activity change, positive = activation? I mean this molecule: CCCCCCCCCCCC(C)=O -0.269% (inactive)

Can you share its activity change, positive = activation? I mean this molecule: CC/C=C/CCCCCCCCCCOC(C)=O 0.111% (inactive)

---

- test protocol: A CellTox Green Cytotoxicity Assay to monitor cytotoxicity in HEK293 cells - 0 hour (AID 1224869); further: on the % scale 0 is the no-effect control and ±100 the full control effect; nearly all actives have a fitted effect of over 50% in size
- measurement parameters: CellTox Green fluorescence; series mostly up to 76.8 µM
Calls of active or inactive are those of the source. Calls come from the whole dose curve; as a rule, active = well fitted activation curve with a large enough effect in the repeat runs; inconclusive = weak or mixed curves; inactive = flat fitted curve, though single readings scatter.
value kind: cytotoxicity

Sample records with cytotoxicity:
C/C=C(\C)C=O :: inactive
CSC(=O)c1cccc2nnsc12 :: inactive
Cc1ccc(OC(=O)CC(C)C)cc1 :: inactive
O=C(O)COc1ccc2ccccc2c1 :: inactive
COC(=O)c1ccc(C(=O)O)cc1 :: inactive

Can you share its cytotoxicity? I mean this compound: CN(C)CCC[C@@]1(c2ccc(F)cc2)OCc2cc(C#N)ccc21 inactive

Can you share its cytotoxicity? I mean this compound: O=c1[nH]c(=O)c2cn[nH]c2[nH]1 inactive

Can you share its cytotoxicity? I mean this compound: CCCCCCCCCCCCCCCCN(C)C 1.73% [at 6.97 µM] (inactive)

Can you share its cytotoxicity? I mean this compound: CC(C)C[P+](C)(CC(C)C)CC(C)C inactive

Can you share its cytotoxicity? I mean this compound: Cc1ccc(Br)cc1 inactive

Can you share its cytotoxicity? I mean this compound: CCCCCCCCCCCCCC(=O)OCC inactive

Can you share its cytotoxicity? I mean this compound: O=C1CC2(CCCC2)CC(=O)N1CCNCC1COc2ccccc2O1 (stereo not given) inactive

---

- target: Cytochrome P450 2C19 (Homo sapiens) (UniProt P33261)
- Sequence (P33261 whole entry, looked up): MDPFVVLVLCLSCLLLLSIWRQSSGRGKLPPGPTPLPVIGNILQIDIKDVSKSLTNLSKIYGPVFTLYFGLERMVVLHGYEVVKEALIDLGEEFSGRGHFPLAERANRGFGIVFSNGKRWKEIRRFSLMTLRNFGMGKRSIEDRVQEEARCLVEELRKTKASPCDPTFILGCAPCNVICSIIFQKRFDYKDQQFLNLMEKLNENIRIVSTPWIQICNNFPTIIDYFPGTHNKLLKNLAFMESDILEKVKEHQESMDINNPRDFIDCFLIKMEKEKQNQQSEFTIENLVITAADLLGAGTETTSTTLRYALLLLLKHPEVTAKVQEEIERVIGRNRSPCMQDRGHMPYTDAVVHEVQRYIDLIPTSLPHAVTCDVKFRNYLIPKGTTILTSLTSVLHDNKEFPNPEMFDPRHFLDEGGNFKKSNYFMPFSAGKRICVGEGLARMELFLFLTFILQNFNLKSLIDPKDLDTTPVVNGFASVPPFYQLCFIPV
- test protocol: Cytochrome P450 Family 2 Subfamily C Member 19 (CYP2C19) small molecule antagonists: luciferase reporter qHTS assay (AID 1671197); further: nearly all actives have a fitted effect of over 65% in size
- measurement parameters: P450-Glo CYP2C19 enzyme, luciferin luminescence, 1 h; series mostly up to 115 µM
- Description: National Center for Advancing Translational Sciences [NCATS] U.S. Environmental Protection Agency [EPA] National Institutes of Environmental Health Sciences [NIEHS] National Toxicology Program [NTP] U.S. Food and Drug Administration [FDA] Cytochrome P450 (CYP) enzymes are membrane-bound hemeproteins that play a key role in metabolism of drugs and xenobiotics. […] The luciferin products formed are detected with a luciferin detection reagent, and the amount of light produced is proportional to CYP activity. […]
Results filed as inconclusive are left out. Calls of active or inactive are those of the source. Calls come from the whole dose curve; as a rule, active = well fitted inhibition curve with a large enough effect in the repeat runs; inconclusive = weak or mixed curves; inactive = no such curve, though single readings can be large or run the other way.
Field 'call' accepts class 1 = active, class 0 = inactive

Record request — test call for C=CCn1cc[n+](C)c1 class 0

Record request — test call for Clc1cc(Cl)c(Cl)c(Cl)c1Cl class 0

Record request — test call for CCN1CCN(C(=O)N[C@@H](C(=O)N[C@@H]2C(=O)N3[C@@H]2SC(C)(C)[C@H]3C(=O)O)c2ccccc2)C(=O)C1=O class 0

Record request — test call for CCc1ccc(CC)cc1 class 0

Record request — test call for CC(C)(C)c1ccc(C(=O)CCCCl)cc1 class 0

Record request — test call for CC(=O)OC1CCC(C(C)(C)C)CC1 (configuration not stated) class 0

Record request — test call for CC(=O)OCC(=O)[C@@]1(O)CC[C@H]2[C@@H]3CCC4=CC(=O)C=C[C@]4(C)[C@H]3[C@@H](O)C[C@@]21C class 0

Record request — test call for CCCCCCC(O)CO (configuration not stated) class 0

Record request — test call for Nc1ccc(C(=O)NCC(=O)O)cc1 class 0

Record request — test call for CN(C)CCc1c[nH]c2ccc(CS(=O)(=O)N3CCCC3)cc12 class 0

Record request — test call for CCNC(=O)C(C)OC(=O)Nc1ccccc1 (configuration not stated) class 1

Record request — test call for C[n+]1ccccc1/C=N/O class 0

---

- test protocol: qHTS assay for small molecules that induce genotoxicity in human embryonic kidney cells expressing luciferase-tagged ATAD5 (AID 651632); further: nearly all actives have a fitted effect of over 15% in size; on activation: on the % scale 0 is the no-effect control and ±100 the full control effect
- measurement parameters: HEK293T ATAD5-luciferase induction, 16 h; series mostly up to 83.3 µM
Records with an inconclusive call do not appear. Calls of active or inactive are those of the source. Calls come from the whole dose curve; as a rule, active = well fitted activation curve with a large enough effect in the repeat runs; inconclusive = weak or mixed curves; inactive = no such curve, though single readings can be large or run the other way.
Field 'call' accepts Y = active, N = inactive

Record request — test call for CC(=O)SC[C@@H](C)C(=O)N1CCC[C@H]1C(=O)N[C@@H](Cc1ccccc1)C(=O)O N

Record request — test call for CN(C)c1cc(NC(=O)CNC(C)(C)C)c(O)c2c1C[C@H]1C[C@H]3[C@H](N(C)C)C(=O)C(C(N)=O)=C(O)[C@@]3(O)C(=O)C1=C2O N

Record request — test call for O=C1CC2(CCCC2)CC(=O)N1CCNCC1COc2ccccc2O1 (centres undefined) N

Record request — test call for CCOC(=O)CC N

Record request — test call for C/C=C/C(=O)CCCC N

Record request — test call for CNC(C)=O N

Record request — test call for CCCCCC(CC)OC(=O)CCCOc1ccc(Cl)cc1Cl (centres undefined) N

Record request — test call for CCCC[O][Al]([O]CCCC)[O]CCCC N

Record request — test call for CC(CN1CC(=O)NC(=O)C1)N1CC(=O)NC(=O)C1 (centres undefined) N

Record request — test call for N#CC1(N)CCCCC1 N

Record request — test call for NNC(=O)CCCCC(=O)NN N

Record request — test call for NNC(=O)OCc1ccccc1 N

Record request — test call for CC(C)(C)C(=O)CCc1ccc(Cl)cc1 N

Record request — test call for COc1ccc(Cl)cc1C N

Record request — test call for CNCCc1ccccn1 N

Record request — test call for CC(O)CCCCn1c(=O)c2c(ncn2C)n(C)c1=O (centres undefined) N

Record request — test call for Cc1ccc2cccnc2c1 N

Record request — test call for CC(CC(=O)Cl)CC(C)(C)C (centres undefined) N

Record request — test call for C[C@@H]1NC(=O)[C@@H](N)CNC(=O)[C@H](C2CCNC(N)=N2)NC(=O)/C(=C/NC(N)=O)NC(=O)[C@H](CNC(=O)C[C@@H](N)CCCN)NC1=O (some centres undefined) N

Record request — test call for COC(=O)c1ccc(C(=O)O)cc1 N

Record request — test call for C/C(=N\O)c1ccc(OCC(=O)N2CCCCC2)cc1 Y

Record request — test call for O=c1[nH]c(=O)c2cn[nH]c2[nH]1 N

Record request — test call for CCCC(C)C(O)CC (centres undefined) N

Record request — test call for CC(C)CC(O)Cc1ccccc1 (centres undefined) N

Record request — test call for C/C=C(\C)C=O N

Record request — test call for Cc1ccc(S(=O)(=O)NC(=O)NN2CC3CCCC3C2)cc1 (centres undefined) N

Record request — test call for CC(=O)Oc1ccc(C(C)=O)cc1 N

Record request — test call for CC(C)=CCC/C(C)=C\C#N N

Record request — test call for CCCCOCCCC N
